The measurements presented in this section are drawn from PubChem BioAssay.

Experiment: inhibitors of E-selectin induction by TNFa, primary screen, imaging, HUVEC, immunofluorescence, MLSMR starter and 10KST1 sets (AID 487);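 further: 100% = median nuclei count of all wells on the same plate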
Settings: HUVEC TNFalpha-induced E-selectin immunofluorescence imaging, at 2 µM; measured here: cell number, toxicity
Could you please report measured nuclei count for the items listed next?
// note: answer is a bare numeric in %

According to the records, this molecule Cc1cc(OCCN2CCOCC2)nc2ccccc12 displays nuclei count of 135

Note to self: nuclei count recorded for COc1ccc(OC)c(C2/C(=C(\O)c3ccc4c(c3)OCCO4)C(=O)C(=O)N2CCCN(C)C)c1 (stereo unspecified) was 130

The recorded nuclei count for CCOC(=O)CC(=O)CSc1nc2c(cc1C#N)CCCCCC2 is 180

The reported value for CCSc1nnc(NC(=O)C(CC)(C(F)(F)F)C(F)(F)F)s1 in terms of nuclei count is 124

For record CC1(C)Cc2c(sc3nc(SCC#N)n(C4CCCCC4)c(=O)c23)CO1 the listed nuclei count is 154

The reported value for CC(O)Cn1ccccc1=N (stereo unspecified) in terms of nuclei count is 105

nuclei count measured on Cn1nnnc1SCC1=C(C(=O)O)N2C(=O)[C@@H](NC(=O)[C@H](O)c3ccccc3)[C@H]2SC1 = 107

Entry under test: Clc1ccccc1-c1nnc2sc(-c3ccco3)nn12 . Its nuclei count was 88.5

Consider CC(=O)Oc1ccccc1C1OCCN1C(C)=O (stereo unspecified) . Its measured nuclei count is 170

nuclei count recorded for this molecule, CC1(C(=O)CSc2nc3ccccc3s2)CCC(=O)O1 (stereo unspecified) , is 131

Lab note: C[C@]12CCC(=O)C=C1CC[C@@H]1[C@@H]2[C@@H](O)C[C@@]2(C)[C@H]1CC[C@]2(O)C(=O)CO gave nuclei count of 94.1
